Target: FLT-3 (Homo sapiens (Human))
Sequence (P36888 27-993): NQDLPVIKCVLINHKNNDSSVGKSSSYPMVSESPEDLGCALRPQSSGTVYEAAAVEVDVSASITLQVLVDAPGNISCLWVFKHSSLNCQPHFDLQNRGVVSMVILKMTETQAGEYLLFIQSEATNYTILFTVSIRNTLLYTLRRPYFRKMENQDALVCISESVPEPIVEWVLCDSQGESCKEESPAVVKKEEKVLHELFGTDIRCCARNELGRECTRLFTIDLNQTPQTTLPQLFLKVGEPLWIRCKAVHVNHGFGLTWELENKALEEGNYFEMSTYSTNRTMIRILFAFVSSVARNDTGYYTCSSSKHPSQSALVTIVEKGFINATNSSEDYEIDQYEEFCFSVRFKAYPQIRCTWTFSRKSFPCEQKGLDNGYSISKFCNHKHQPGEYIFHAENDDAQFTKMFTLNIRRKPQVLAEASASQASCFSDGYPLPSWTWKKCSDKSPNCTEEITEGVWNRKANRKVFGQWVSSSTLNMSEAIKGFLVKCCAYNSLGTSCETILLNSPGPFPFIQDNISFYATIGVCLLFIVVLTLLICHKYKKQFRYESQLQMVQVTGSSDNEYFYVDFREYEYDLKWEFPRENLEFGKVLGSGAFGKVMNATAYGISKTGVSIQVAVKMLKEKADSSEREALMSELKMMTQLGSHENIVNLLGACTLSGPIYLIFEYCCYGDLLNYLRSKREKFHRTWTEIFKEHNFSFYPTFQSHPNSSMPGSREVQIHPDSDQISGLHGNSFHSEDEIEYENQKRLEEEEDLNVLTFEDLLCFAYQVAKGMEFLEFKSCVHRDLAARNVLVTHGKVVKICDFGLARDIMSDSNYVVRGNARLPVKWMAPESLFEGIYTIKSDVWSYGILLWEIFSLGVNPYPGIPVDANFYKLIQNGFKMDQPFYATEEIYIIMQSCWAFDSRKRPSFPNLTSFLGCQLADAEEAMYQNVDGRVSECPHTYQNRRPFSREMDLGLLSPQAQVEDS
pIC50: −log10 of the molar value.
observation type: pIC50

molecule | pIC50
COc1cc(C2=C(c3cn(CCO)c4ccccc34)C(=O)NC2=O)cc(OC)c1OC [H] | 6.26
COc1cc(C2=C(c3c[nH]c4ccccc34)C(=O)NC2=O)cc(OC)c1OC [A] | 6.78

I: COc1cc(C2=C(c3c[nH]c4ccncc34)C(=O)NC2=O)cc(OC)c1OC [Compound D]
II: COc1cc(C2=C(c3c[nH]c4cccnc34)C(=O)NC2=O)cc(OC)c1OC [E]
III: COc1cc(C2=C(c3c[nH]c4ncccc34)C(=O)NC2=O)cc(OC)c1OC [B]
Exam item: List the 3 entries from lowest pIC50 to highest pIC50 value. Reply: labels, ordered per the request.
Marked response: I, II, III

----------
Test system: HT-29 human colon adenocarcinoma cells
Assay: MTT viability assay in HT-29 cells
Conditions: HT-29, 72 h, read-out: Viability of HT-29 cells as determined by MTT assay
observation type: viability at 2.6 µM (%)
Return type: number; implicit unit %.

Example cases with answers are listed next.
structure string | observation type | unit info | quantitative readout
COc1cc(C2=C(c3c[nH]c4ncccc34)C(=O)NC2=O)cc(OC)c1OC | viability at 2.6 µM | % | 65
COc1cc(C2=C(c3c[nH]c4ccc(F)cc34)C(=O)NC2=O)cc(OC)c1OC | viability at 2.6 µM | % | 47.8
COc1cc(C2=C(c3c[nH]c4ccncc34)C(=O)NC2=O)cc(OC)c1OC | viability at 2.6 µM | % | 62.2

Exam item: Please report the measured viability at 2.6 µM for COc1cc(C2=C(c3c[nH]c4cnccc34)C(=O)NC2=O)cc(OC)c1OC
Marked response: 30.4

Exam item: Please report the measured viability at 2.6 µM for COc1cc(C2=C(c3c[nH]c4ccc(Br)cc34)C(=O)NC2=O)cc(OC)c1OC
Marked response: 37.8

Exam item: Please report the measured viability at 2.6 µM for COc1cc(C2=C(c3c[nH]c4ccccc34)C(=O)NC2=O)cc(OC)c1OC
Marked response: 78.5

Exam item: Please report the measured viability at 2.6 µM for COc1cc(C2=C(c3c[nH]c4cccnc34)C(=O)NC2=O)cc(OC)c1OC
Marked response: 114

----------
In what follows, each item is paired with its pIC50 for VEGFR-2 (Homo sapiens (Human), UniProt P35968).
pIC50: −log10 of the molar value.
observation type: pIC50

Example cases with answers are listed next.
compound | pIC50
COc1cc(C2=C(c3cn(CCCN)c4ccccc34)C(=O)NC2=O)cc(OC)c1OC.Cl [G] | 5.82
COc1cc(C2=C(c3cn(CCN)c4ccccc34)C(=O)NC2=O)cc(OC)c1OC.Cl [F] | 5.72
COc1cc(C2=C(c3c[nH]c4ccccc34)C(=O)NC2=O)cc(OC)c1OC [A] | 7.05

I: COc1cc(C2=C(c3c[nH]c4ccc(F)cc34)C(=O)NC2=O)cc(OC)c1OC [O]
II: COc1cc(C2=C(c3cn(CCN(C)C)c4ccccc34)C(=O)NC2=O)cc(OC)c1OC [J]
III: COc1cc(C2=C(c3c[nH]c4cnccc34)C(=O)NC2=O)cc(OC)c1OC [Compound C]
Exam item: hey, can you rank those compounds up there by pIC50? biggest number first please Reply: labels, ordered per the request.
Marked response: III, I, II
(III: 7.32, I: 6.74, II: 5.89)

----------
The following molecules are shown together with reported melting point values.

Example cases with answers are listed next.
structure string | observation type | result
COc1cc(C2=C(c3cn(CCCO)c4ccccc34)C(=O)NC2=O)cc(OC)c1OC | melting point | 160 °C
COc1cc(C2=C(c3cn(CCN4CCOCC4)c4ccccc34)C(=O)NC2=O)cc(OC)c1OC | melting point | 238 to 239 °C
COc1cc(C2=C(c3cn(CCN(C)C)c4ccccc34)C(=O)NC2=O)cc(OC)c1OC | melting point | 184 to 185 °C
COc1cc(C2=C(c3c[nH]c4cccnc34)C(=O)NC2=O)cc(OC)c1OC | melting point | 274 to 275 °C
COc1cc(C2=C(c3c[nH]c4ccc(F)cc34)C(=O)NC2=O)cc(OC)c1OC | melting point | 232 to 233 °C
COc1cc(C2=C(c3cn(CCN4CCCCC4)c4ccccc34)C(=O)NC2=O)cc(OC)c1OC | melting point | 179 to 180 °C
COc1cc(C2=C(c3cn(CCO)c4ccccc34)C(=O)NC2=O)cc(OC)c1OC | melting point | 195 to 196 °C

# evaluate next
Exam item: Please report the measured melting point for COc1cc(C2=C(c3c[nH]c4ccc(Br)cc34)C(=O)NC2=O)cc(OC)c1OC
Marked response: 259 to 262 °C

----------
Test system: HT-29 human colon adenocarcinoma cells
Assay: MTT viability assay in HT-29 cells
Conditions: HT-29, 72 h, read-out: Viability of HT-29 cells as determined by MTT assay
observation type: viability at 7.9 µM (%)
Return type: number; implicit unit %.

Example cases with answers are listed next.
structure string | tgt | unit info | viability at 7.9 µM
COc1cc(C2=C(c3c[nH]c4ncccc34)C(=O)NC2=O)cc(OC)c1OC | HT-29 human colon adenocarcinoma cells | % | 45.5
COc1cc(C2=C(c3c[nH]c4ccncc34)C(=O)NC2=O)cc(OC)c1OC | HT-29 human colon adenocarcinoma cells | % | 64.2
COc1cc(C2=C(c3c[nH]c4ccc(F)cc34)C(=O)NC2=O)cc(OC)c1OC | HT-29 human colon adenocarcinoma cells | % | 35.5
COc1cc(C2=C(c3c[nH]c4cccnc34)C(=O)NC2=O)cc(OC)c1OC | HT-29 human colon adenocarcinoma cells | % | 98.3
COc1cc(C2=C(c3c[nH]c4ccccc34)C(=O)NC2=O)cc(OC)c1OC | HT-29 human colon adenocarcinoma cells | % | 62.9

Exam item: Please report the measured viability at 7.9 µM for COc1cc(C2=C(c3c[nH]c4cnccc34)C(=O)NC2=O)cc(OC)c1OC
Marked response: 25.8

Exam item: Please report the measured viability at 7.9 µM for COc1cc(C2=C(c3c[nH]c4ccc(Br)cc34)C(=O)NC2=O)cc(OC)c1OC
Marked response: 20.6

----------
Target: GSK-3β (Homo sapiens (Human))
pIC50: −log10 of the molar value.
observation type: pIC50

structure string | observation type | quantitative readout
COc1cc(C2=C(c3cn(CCN(C)C)c4ccccc34)C(=O)NC2=O)cc(OC)c1OC | pIC50 | 5.45
COc1cc(C2=C(c3cn(CCCN4CCN(C)CC4)c4ccccc34)C(=O)NC2=O)cc(OC)c1OC | pIC50 | 5.49
COc1cc(C2=C(c3cn(CCN4CCOCC4)c4ccccc34)C(=O)NC2=O)cc(OC)c1OC | pIC50 | 6.18
COc1cc(C2=C(c3c[nH]c4ccccc34)C(=O)NC2=O)cc(OC)c1OC | pIC50 | 5.96

A: COc1cc(C2=C(c3c[nH]c4cccnc34)C(=O)NC2=O)cc(OC)c1OC
B: COc1cc(C2=C(c3c[nH]c4ccncc34)C(=O)NC2=O)cc(OC)c1OC
Exam item: Between A and B , whose recorded pIC50 is greater? Respond with the label that goes with your answer.
Marked response: B
(B: 7.30, A: 6.67)

----------
Biological target: GSK-3β (Homo sapiens (Human), UniProt P49841)
Sequence (P49841 whole entry): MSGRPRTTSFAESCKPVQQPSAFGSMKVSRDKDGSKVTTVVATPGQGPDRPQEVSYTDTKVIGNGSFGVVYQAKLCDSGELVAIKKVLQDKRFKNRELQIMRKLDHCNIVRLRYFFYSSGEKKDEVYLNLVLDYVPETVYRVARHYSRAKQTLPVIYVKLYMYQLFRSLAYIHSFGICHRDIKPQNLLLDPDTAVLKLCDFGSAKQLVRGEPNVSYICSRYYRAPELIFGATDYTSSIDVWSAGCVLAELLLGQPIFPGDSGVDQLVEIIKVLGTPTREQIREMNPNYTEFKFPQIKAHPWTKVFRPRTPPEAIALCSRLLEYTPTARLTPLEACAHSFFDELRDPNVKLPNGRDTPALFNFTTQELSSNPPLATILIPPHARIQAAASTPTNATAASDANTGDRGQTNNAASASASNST
observation type: IC50

Example cases with answers are listed next.
compound | result
COc1cc(C2=C(c3cn(CCN)c4ccccc34)C(=O)NC2=O)cc(OC)c1OC.Cl [F] | 195 nM
COc1cc(C2=C(c3c[nH]c4ncccc34)C(=O)NC2=O)cc(OC)c1OC [B] | > 10000 nM

# evaluate next
Exam item: # lookup: GSK-3β (Homo sapiens (Human), UniProt P49841) IC50, key = COc1cc(C2=C(c3cn(CCN4CCCCC4)c4ccccc34)C(=O)NC2=O)cc(OC)c1OC [L]
Marked response: > 1000 nM

Cited source: patent US9364459B2
